Data credit: the supplement of paper PMC11061612

System: PC-3 (Prostate Carcinoma)
Assay: combination Emax (second highest fraction inhibited in the dose matrix, 72 h); higher = more inhibition; extreme values may be limits of the assay
Parameter: combination Emax. Scope: all listed entries.

Sample records with combination Emax:
Cc1c2c(nn1C)CSCc1cc(n(C)n1)CSc1cc(c3ccccc3c1)OCCCc1c(C(=O)O)n(C)c3c-2c(Cl)ccc13 [AZD5991] + C[C@@H](Nc1cc(F)cc(F)c1)c1cc(C(=O)N(C)C)cc2c(=O)cc(N3CCOCC3)oc12 [AZD8186] (first compound max 1 µM, 7x7, partner max 3 µM) : 0.449
C[C@@H](c1ccc2nccn2c1)n1nnc2ncc(-c3cnn(C)c3)nc21 [Savolitinib] + CC1(C)CCC(CN2CCN(c3ccc(C(=O)NS(=O)(=O)c4ccc(NCC5CCOCC5)c([N+](=O)[O-])c4)c(Oc4cnc5[nH]ccc5c4)c3)CC2)=C(c2ccc(Cl)cc2)C1 [Venetoclax] (first compound max 1 µM, 7x7, partner max 1 µM) : 0.121

Attention now shifts to the item below.
Data request: Look up combination Emax for this compound: COc1cccc(OCCCN)c1-c1cc(Nc2cnc(C#N)cn2)n[nH]1 [Prexasertib] + C=CCn1c(=O)c2cnc(Nc3ccc(N4CCN(C)CC4)cc3)nc2n1-c1cccc(C(C)(C)O)n1 [AZD1775] (first compound max 1 µM, partner max 1 µM)
Data returned: 0.442

###

Tested on: CW-2 (Colorectal Carcinoma)
Experiment: Bliss excess, mean over the matrix (fraction); higher = more synergy
Overview of recorded Bliss excess for various compounds
Enter the number alone.

Use these answered entries as a reference point.
CS(=O)(=O)CCNCc1ccc(-c2ccc3ncnc(Nc4ccc(OCc5cccc(F)c5)c(Cl)c4)c3c2)o1 [Lapatinib] + C[C@@H](Oc1cc(-c2cnn(C3CCNCC3)c2)cnc1N)c1c(Cl)ccc(F)c1Cl [Crizotinib] (first compound max 10 µM, 7x7, partner max 10 µM) : -0.0146
Cc1cc2ncnn2cc1Nc1ncc2c(n1)n(C1CCOCC1)c(=O)n2C [AZD7648] + COc1cc([C@@H]2c3cc4c(cc3[C@@H](O[C@@H]3O[C@@H]5CO[C@@H](C)O[C@H]5[C@H](O)[C@H]3O)[C@H]3COC(=O)[C@H]23)OCO4)cc(OC)c1O [Etoposide] (first compound max 10 µM, 7x7, partner max 10 µM) : 0.0573

Let's switch to this compound now.
Data request: Field request: Bliss excess | item: O=C(c1cc(Cc2n[nH]c(=O)c3ccccc23)ccc1F)N1CCN(C(=O)C2CC2)CC1 [Olaparib] + Cc1c2c(nn1C)CSCc1cc(n(C)n1)CSc1cc(c3ccccc3c1)OCCCc1c(C(=O)O)n(C)c3c-2c(Cl)ccc13 [AZD5991] (first compound max 10 µM, 7x7, partner max 1 µM)
Data returned: -0.03

###

Tested on: CHSA8926 (Chondrosarcoma)
Assay: Bliss excess, mean over the matrix (fraction); higher = more synergy
Consider the following molecules and their measured Bliss excess readings.
API note: the answer field is a bare number with no unit suffix.

Solved entries (count: 4):
CS(=O)(=O)CCNCc1ccc(-c2ccc3ncnc(Nc4ccc(OCc5cccc(F)c5)c(Cl)c4)c3c2)o1 [Lapatinib] + C[C@@H](Oc1cc(-c2cnn(C3CCNCC3)c2)cnc1N)c1c(Cl)ccc(F)c1Cl [Crizotinib] (first compound max 10 µM, 7x7, partner max 10 µM) : -0.0231
Cc1c2c(nn1C)CSCc1cc(n(C)n1)CSc1cc(c3ccccc3c1)OCCCc1c(C(=O)O)n(C)c3c-2c(Cl)ccc13 [AZD5991] + CC1(C)CCC(CN2CCN(c3ccc(C(=O)NS(=O)(=O)c4ccc(NCC5CCOCC5)c([N+](=O)[O-])c4)c(Oc4cnc5[nH]ccc5c4)c3)CC2)=C(c2ccc(Cl)cc2)C1 [Venetoclax] (first compound max 1 µM, 7x7, partner max 1 µM) : -0.031
C=CCn1c(=O)c2cnc(Nc3ccc(N4CCN(C)CC4)cc3)nc2n1-c1cccc(C(C)(C)O)n1 [AZD1775] + C1CN(CCC1(C(=O)N[C@@H](CCO)C2=CC=C(C=C2)Cl)N)C3=NC=NC4=C3C=CN4 [Capivasertib] (first compound max 3 µM, partner max 3 µM) : 0.0361
CCN(CCO)CCCOc1ccc2c(Nc3cc(CC(=O)Nc4cccc(F)c4)[nH]n3)ncnc2c1 [AZD2811] + C=CCn1c(=O)c2cnc(Nc3ccc(N4CCN(C)CC4)cc3)nc2n1-c1cccc(C(C)(C)O)n1 [AZD1775] (first compound max 1 µM, partner max 1 µM) : 0.0032

Data request: Bench note: what Bliss excess did C=CCn1c(=O)c2cnc(Nc3ccc(N4CCN(C)CC4)cc3)nc2n1-c1cccc(C(C)(C)O)n1 [AZD1775] + O=C(c1cc(Cc2n[nH]c(=O)c3ccccc23)ccc1F)N1CCN(C(=O)C2CC2)CC1 [Olaparib] (first compound max 1 µM, partner max 10 µM) show?
Data returned: -0.0167

Data request: Do the same for NC1(C(=O)N[C@@H](CCO)c2ccc(Cl)cc2)CCN(c2ncnc3[nH]ccc23)CC1 [Capivasertib] + CC(=O)c1c(C)c2cnc(Nc3ccc(N4CCNCC4)cn3)nc2n(C2CCCC2)c1=O [Palbociclib] (first compound max 10 µM, 7x7, partner max 10 µM) please
Data returned: -0.0171

Data request: Likewise for C[C@@H]1COCCN1c1cc(C2([S@](C)(=N)=O)CC2)nc(-c2ccnc3[nH]ccc23)n1 [AZD6738] + O=C(c1cc(Cc2n[nH]c(=O)c3ccccc23)ccc1F)N1CCN(C(=O)C2CC2)CC1 [Olaparib] (first compound max 10 µM, 7x7, partner max 10 µM) ?
Data returned: 0.01

Data request: Follow-up entry: Cc1cc2ncnn2cc1Nc1ncc2c(n1)n(C1CCOCC1)c(=O)n2C [AZD7648] + C=CCn1c(=O)c2cnc(Nc3ccc(N4CCN(C)CC4)cc3)nc2n1-c1cccc(C(C)(C)O)n1 [AZD1775] (first compound max 10 µM, partner max 1 µM)
Data returned: 0.0382

###

Tested on: KU812 (Chronic Myelogenous Leukemia)
Experiment: Bliss excess, mean over the matrix (fraction); higher = more synergy
Readout: Bliss excess
I only need the number, thanks.

Cc1c2c(nn1C)CSCc1cc(n(C)n1)CSc1cc(c3ccccc3c1)OCCCc1c(C(=O)O)n(C)c3c-2c(Cl)ccc13 [AZD5991] + Cc1cc2ncnn2cc1Nc1ncc2c(n1)n(C1CCOCC1)c(=O)n2C [AZD7648] (first compound max 1 µM, 7x7, partner max 10 µM) : -0.0046

Now for the molecule whose Bliss excess we want.
Data request: Would you kindly share the measured Bliss excess for CN(CCO)CC[C@H](CSc1ccccc1)Nc1ccc(S(=O)(=O)NC(=O)c2ccc(N3CCC([C@@H](O)c4ccccc4-c4ccc(Cl)cc4)CC3)cc2)cc1S(=O)(=O)C(F)(F)F [AZD4320] + CN(C)CCCOc1ccc(-c2ccc3ncc4c(c3c2)n(C2CCOCC2)c(=O)n4C)cn1 [AZD0156] (first compound max 1 µM, 7x7, partner max 1 µM) ?
Data returned: -0.0086

###

Quick reference for Bliss excess among some compounds
Tested on: IM-95 (Gastric Carcinoma)
Assay: Bliss excess, mean over the matrix (fraction); higher = more synergy
Output spec: single numeric token, no unit.

NC1(C(=O)N[C@@H](CCO)c2ccc(Cl)cc2)CCN(c2ncnc3[nH]ccc23)CC1 [Capivasertib] + CC(C)n1c(=O)n(C)c2cnc3cc(F)c(-c4ccc(OCCCN5CCCCC5)nc4)cc3c21 [AZD1390] (first compound max 10 µM, 7x7, partner max 0.3 µM) : -0.0656

Data request: Record request: Bliss excess value, item COc1nnc2ccc(N3CCC(c4ccc(OCCN5CCN(C)C(=O)[C@H]5C)cc4)CC3)nn12 [AZD5153] + CC1(C)CCC(CN2CCN(c3ccc(C(=O)NS(=O)(=O)c4ccc(NCC5CCOCC5)c([N+](=O)[O-])c4)c(Oc4cnc5[nH]ccc5c4)c3)CC2)=C(c2ccc(Cl)cc2)C1 [Venetoclax] (first compound max 1 µM, 7x7, partner max 1 µM)
Data returned: -0.0663

Data request: Now this one: CN(CCO)CC[C@H](CSc1ccccc1)Nc1ccc(S(=O)(=O)NC(=O)c2ccc(N3CCC([C@@H](O)c4ccccc4-c4ccc(Cl)cc4)CC3)cc2)cc1S(=O)(=O)C(F)(F)F [AZD4320] + C[C@@H](Nc1cc(F)cc(F)c1)c1cc(C(=O)N(C)C)cc2c(=O)cc(N3CCOCC3)oc12 [AZD8186] (first compound max 1 µM, 7x7, partner max 3 µM)
Data returned: 0.0117

Data request: Another compound to look at: CN(C)CCCOc1ccc(-c2ccc3ncc4c(c3c2)n(C2CCOCC2)c(=O)n4C)cn1 [AZD0156] + CCN(CCO)CCCOc1ccc2c(Nc3cc(CC(=O)Nc4cccc(F)c4)[nH]n3)ncnc2c1 [AZD2811] (first compound max 1 µM, 7x7, partner max 1 µM)
Data returned: 0.0925

Data request: Another compound to check: CC(=O)c1c(C)c2cnc(Nc3ccc(N4CCNCC4)cn3)nc2n(C2CCCC2)c1=O [Palbociclib] + Cc1c2c(nn1C)CSCc1cc(n(C)n1)CSc1cc(c3ccccc3c1)OCCCc1c(C(=O)O)n(C)c3c-2c(Cl)ccc13 [AZD5991] (first compound max 10 µM, 7x7, partner max 1 µM)
Data returned: -0.114

Data request: Also Cc1c2c(nn1C)CSCc1cc(n(C)n1)CSc1cc(c3ccccc3c1)OCCCc1c(C(=O)O)n(C)c3c-2c(Cl)ccc13 [AZD5991] + CN(C)CCCOc1ccc(-c2ccc3ncc4c(c3c2)n(C2CCOCC2)c(=O)n4C)cn1 [AZD0156] (first compound max 1 µM, 7x7, partner max 1 µM) ?
Data returned: -0.0198

Data request: Entry to check: COc1cc2ncnc(Nc3ccc(F)c(Cl)c3)c2cc1OCCCN1CCOCC1 [Gefitinib] + CC(C)n1c(=O)n(C)c2cnc3cc(F)c(-c4ccc(OCCCN5CCCCC5)nc4)cc3c21 [AZD1390] (first compound max 10 µM, 7x7, partner max 0.3 µM)
Data returned: -0.0527

Data request: For CC1(C)CCC(CN2CCN(c3ccc(C(=O)NS(=O)(=O)c4ccc(NCC5CCOCC5)c([N+](=O)[O-])c4)c(Oc4cnc5[nH]ccc5c4)c3)CC2)=C(c2ccc(Cl)cc2)C1 [Venetoclax] + C=CCn1c(=O)c2cnc(Nc3ccc(N4CCN(C)CC4)cc3)nc2n1-c1cccc(C(C)(C)O)n1 [AZD1775] (first compound max 1 µM, partner max 1 µM) then?
Data returned: 0.0197

Data request: Then what about the compound Cn1cnc2c(F)c(Nc3ccc(Br)cc3Cl)c(C(=O)NOCCO)cc21 [Selumetinib] + CCN(CCO)CCCOc1ccc2c(Nc3cc(CC(=O)Nc4cccc(F)c4)[nH]n3)ncnc2c1 [AZD2811] (first compound max 10 µM, 7x7, partner max 1 µM) ?
Data returned: 0.0874

Data request: Please do the same for COc1nnc2ccc(N3CCC(c4ccc(OCCN5CCN(C)C(=O)[C@H]5C)cc4)CC3)nn12 [AZD5153] + CCN(CCO)CCCOc1ccc2c(Nc3cc(CC(=O)Nc4cccc(F)c4)[nH]n3)ncnc2c1 [AZD2811] (first compound max 1 µM, 7x7, partner max 1 µM) as well.
Data returned: -0.0664

Data request: Let us now turn to CC1(C)CCC(CN2CCN(c3ccc(C(=O)NS(=O)(=O)c4ccc(NCC5CCOCC5)c([N+](=O)[O-])c4)c(Oc4cnc5[nH]ccc5c4)c3)CC2)=C(c2ccc(Cl)cc2)C1 [Venetoclax] + COc1cc(Nc2ncc3c(n2)-c2ccc(Cl)cc2C(c2c(F)cccc2OC)=NC3)ccc1C(=O)O [Alisertib] (first compound max 1 µM, 7x7, partner max 10 µM)
Data returned: 0.005

Data request: Also, COc1nnc2ccc(N3CCC(c4ccc(OCCN5CCN(C)C(=O)[C@H]5C)cc4)CC3)nn12 [AZD5153] + Cc1c2c(nn1C)CSCc1cc(n(C)n1)CSc1cc(c3ccccc3c1)OCCCc1c(C(=O)O)n(C)c3c-2c(Cl)ccc13 [AZD5991] (first compound max 1 µM, 7x7, partner max 1 µM) please.
Data returned: -0.0477

Data request: Request: Cc1c2c(nn1C)CSCc1cc(n(C)n1)CSc1cc(c3ccccc3c1)OCCCc1c(C(=O)O)n(C)c3c-2c(Cl)ccc13 [AZD5991] + C1CN(CCC1(C(=O)N[C@@H](CCO)C2=CC=C(C=C2)Cl)N)C3=NC=NC4=C3C=CN4 [Capivasertib] (first compound max 1 µM, 7x7, partner max 3 µM)
Data returned: -0.0384

Data request: Same again, this time with Cc1c2c(nn1C)CSCc1cc(n(C)n1)CSc1cc(c3ccccc3c1)OCCCc1c(C(=O)O)n(C)c3c-2c(Cl)ccc13 [AZD5991] + CC1(C)CCC(CN2CCN(c3ccc(C(=O)NS(=O)(=O)c4ccc(NCC5CCOCC5)c([N+](=O)[O-])c4)c(Oc4cnc5[nH]ccc5c4)c3)CC2)=C(c2ccc(Cl)cc2)C1 [Venetoclax] (first compound max 1 µM, 7x7, partner max 1 µM)
Data returned: 0.0119
